# Lookup of reported Relative potency keyed by entry
Test system: Proteus
Experiment description: In vitro antibacterial activity against Proteus relative to thienamycin
Assay type: functional, Proteus sp.

Molecule: CC(O)[C@H]1C(=O)N2C(C(=O)O)=C(c3ccc(CN)cc3)C[C@H]12 (some centres undefined)
Relative potency: 6.5
//
Molecule: CSCc1ccc[n+](Cc2ccc(C3=C(C(=O)[O-])N4C(=O)[C@H]([C@@H](C)O)[C@H]4C3)cc2)c1
Relative potency: 6.5
//
Molecule: C[C@@H](O)[C@H]1C(=O)N2C(C(=O)[O-])=C(c3ccc(C[n+]4ccccc4)cc3)C[C@H]12
Relative potency: 9.8
//
Molecule: C[C@@H](O)[C@H]1C(=O)N2C(C(=O)[O-])=C(c3ccc(C[n+]4cccc(C(F)(F)F)c4)cc3)C[C@H]12
Relative potency: 3.7

* * *

# Lookup of reported Relative potency keyed by entry
Test system: Enterobacter
Experiment description: In vitro antibacterial activity against Enterobacter relative to thienamycin
Assay type: functional

Compound string: C[C@@H](O)[C@H]1C(=O)N2C(C(=O)[O-])=C(c3ccc(C[N+]4(C)CCCC4)cc3)C[C@H]12
Relative potency: 7.5
--
Compound string: C[C@@H](O)[C@H]1C(=O)N2C(C(=O)O)=C(c3ccc(CN4CCOCC4)cc3)C[C@H]12
Relative potency: 5.3
--
Compound string: C[C@@H](O)[C@H]1C(=O)N2C(C(=O)[O-])=C(c3ccc(C[n+]4ccc(CN)cc4)cc3)C[C@H]12
Relative potency: 2.6
--
Compound string: C[C@@H](O)[C@H]1C(=O)N2C(C(=O)[O-])=C(c3ccc(C[n+]4ccc(N5CCSCC5)cc4)cc3)C[C@H]12
Relative potency: 4.6
--
Compound string: CSc1ccc[n+](Cc2ccc(C3=C(C(=O)[O-])N4C(=O)[C@H]([C@@H](C)O)[C@H]4C3)cc2)c1
Relative potency: 11.3
--
Compound string: C[C@@H](O)[C@H]1C(=O)N2C(C(=O)[O-])=C(c3ccc(C[n+]4ccc(CS(=O)(=O)[O-])cc4)cc3)C[C@H]12.[K+]
Relative potency: 9.2
--
Compound string: C[C@@H](O)[C@H]1C(=O)N2C(C(=O)[O-])=C(c3ccc(C[n+]4ccccc4)cc3)C[C@H]12
Relative potency: 7

* * *

Tested on: Enterococcus
Experiment description: In vitro antibacterial activity against Enterococcus relative to thienamycin
Type: functional
# Lookup of reported Relative potency keyed by entry
Reported endpoint: Relative potency

Compound: C[C@@H](O)[C@H]1C(=O)N2C(C(=O)[O-])=C(c3ccc(C[n+]4ccc(N5CCCCC5)cc4)cc3)C[C@H]12
Experimental target: Enterococcus
Result: 5.7

Compound: C[C@@H](O)[C@H]1C(=O)N2C(C(=O)[O-])=C(c3ccc(C[n+]4cccc(CSCCC#N)c4)cc3)C[C@H]12
Experimental target: Enterococcus
Result: 8

Compound: CC(O)[C@H]1C(=O)N2C(C(=O)O)=C(c3ccc(CN)cc3)C[C@H]12 (some centres not stated)
Experimental target: Enterococcus
Result: 9.2

Compound: C[C@@H](O)[C@H]1C(=O)N2C(C(=O)[O-])=C(c3ccc(C[n+]4ccc(N5CCCC5)cc4)cc3)C[C@H]12
Experimental target: Enterococcus
Result: 14.9

Compound: CO[C@@]1(NC(=O)Cc2cccs2)C(=O)N2C(C(=O)O)=C(COC(N)=O)CS[C@@H]21
Experimental target: Enterococcus
Result: 0.06

Compound: C[C@@H](O)[C@H]1C(=O)N2C(C(=O)[O-])=C(c3ccc(C[N+]4(C)CCCC4)cc3)C[C@H]12
Experimental target: Enterococcus
Result: 13.9

Compound: C[C@@H](O)[C@H]1C(=O)N2C(C(=O)[O-])=C(c3ccc(C[N+]4(C)CCOCC4)cc3)C[C@H]12
Experimental target: Enterococcus
Result: 10.6
